- System: PC3 mock tumor
- EXPERIMENT DESCRIPTION: Small-animal PET, uptake in mock tumor
- CONDITION SUMMARY: 1.5 (1–2) hours p.i.; blocker i.v. before tracer: Cu-1 100 nmol 1, Cu-2 100 nmol 2, Cu-3 1000 nmol 4, Cu-4 500 nmol 4, Cu-6 250 nmol 1 (~5 min prior), Cu-5 100 nmol 5 (~30 min prior)
Here, each record is paired with measured SUVmax PC3 mock tumor +block data.

{"COMPOUND": "Cc1c(COc2cc(OCc3cncc(S(C)(=O)=O)c3)c(CN[C@@H](CS(=O)(=O)O)C(=O)NCCP(=O)(O)O)cc2Cl)cccc1-c1cccc(OCc2cn(CCCN3CCN(C(=O)[C@H](CP(=O)(O)O)NC(=O)CC[C@H](C(=O)O)N4CCN(CC(=O)O)CCN(CC(=O)O)CC4)CC3)nn2)c1C.[64Cu+2] [[^64Cu]Cu-6]", "SUVmax PC3 mock tumor +block": 1.04}
{"COMPOUND": "Cc1c(COc2cc(OCc3cncc(S(C)(=O)=O)c3)c(CN[C@@H](CS(=O)(=O)O)C(=O)NCCS(=O)(=O)O)cc2Cl)cccc1-c1cccc(OCc2cn(CCCN3CCN(C(=O)[C@H](CS(=O)(=O)O)NC(=O)CC[C@H](C(=O)O)N4CCN(CC(=O)O)CCN(CC(=O)O)CC4)CC3)nn2)c1C.[64Cu+2] [[^64Cu]Cu-3]", "SUVmax PC3 mock tumor +block": 0.80}
{"COMPOUND": "Cc1c(COc2cc(OCc3cncc(S(C)(=O)=O)c3)c(CN[C@@H](CS(=O)(=O)O)C(=O)NCCP(=O)(O)O)cc2Cl)cccc1-c1cccc(OCc2cn(CCCN3CCN(C(=O)CC[C@H](C(=O)O)N4CCN(CC(=O)O)CCN(CC(=O)O)CC4)CC3)nn2)c1C.[64Cu+2] [[^64Cu]Cu-4]", "SUVmax PC3 mock tumor +block": 0.65}
{"COMPOUND": "Cc1c(COc2cc(OCc3cncc(C#N)c3)c(CN[C@@H](CS(=O)(=O)O)C(=O)NCCS(=O)(=O)O)cc2Cl)cccc1-c1cccc(OCc2cn(CCCN3CCN(C(=O)[C@H](CS(=O)(=O)O)NC(=O)CC[C@H](C(=O)O)N4CCN(CC(=O)O)CCN(CC(=O)O)CC4)CC3)nn2)c1C.[64Cu+2] [[^64Cu]Cu-1]", "SUVmax PC3 mock tumor +block": 1.4}
{"COMPOUND": "Cc1c(COc2cc(OCc3cncc(S(C)(=O)=O)c3)c(CN[C@@H](CS(=O)(=O)O)C(=O)NCCP(=O)(O)O)cc2Cl)cccc1-c1cccc(OCc2cn(CCCN3CCN(C(=O)[C@H](CS(=O)(=O)O)NC(=O)CC[C@H](C(=O)O)N4CCN(CC(=O)O)CCN(CC(=O)O)CC4)CC3)nn2)c1C.[64Cu+2] [[^64Cu]Cu-5]", "SUVmax PC3 mock tumor +block": 0.75}
